Where do these numbers come from? They come from patent US20240174639A1.

Target: HCN2 (Homo sapiens)
Sequence (Q9UL51 1-889): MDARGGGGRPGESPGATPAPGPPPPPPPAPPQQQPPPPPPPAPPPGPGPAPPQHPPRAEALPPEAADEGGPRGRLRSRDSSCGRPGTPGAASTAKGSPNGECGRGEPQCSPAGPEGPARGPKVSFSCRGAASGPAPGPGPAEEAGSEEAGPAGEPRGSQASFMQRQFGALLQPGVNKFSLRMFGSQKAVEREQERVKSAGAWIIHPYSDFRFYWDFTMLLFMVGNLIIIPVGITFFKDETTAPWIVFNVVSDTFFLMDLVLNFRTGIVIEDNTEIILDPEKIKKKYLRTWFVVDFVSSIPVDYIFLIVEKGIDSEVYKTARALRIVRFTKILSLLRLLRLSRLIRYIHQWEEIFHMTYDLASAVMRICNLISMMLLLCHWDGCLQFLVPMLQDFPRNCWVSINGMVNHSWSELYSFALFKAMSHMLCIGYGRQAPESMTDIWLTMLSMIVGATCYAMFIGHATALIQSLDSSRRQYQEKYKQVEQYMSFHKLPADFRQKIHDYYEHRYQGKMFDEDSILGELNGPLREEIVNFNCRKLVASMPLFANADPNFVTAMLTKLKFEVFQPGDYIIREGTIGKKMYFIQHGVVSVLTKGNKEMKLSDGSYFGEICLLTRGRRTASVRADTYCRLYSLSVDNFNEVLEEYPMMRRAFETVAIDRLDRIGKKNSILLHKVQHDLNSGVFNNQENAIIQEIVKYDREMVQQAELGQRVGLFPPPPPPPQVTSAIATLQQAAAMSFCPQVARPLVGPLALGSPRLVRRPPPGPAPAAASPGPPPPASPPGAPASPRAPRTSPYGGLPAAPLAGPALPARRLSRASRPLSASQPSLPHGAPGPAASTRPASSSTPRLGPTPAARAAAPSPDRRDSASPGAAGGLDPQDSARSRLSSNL
Assay: HCN2 assay using PatchXpress 7000A (Example 50A)
Assay type: cell-based
Conditions: PatchXpress protocol (PX)
Where a name gives a salt, the structure may show the parent alone.
property-name: IC50 (µM)

Examples with their reported IC50 follow.
compound	IC50 / µM
N[C@@H](Cc1cccc(CCO)n1)c1ncccc1-n1ncc2ccccc21 [Example 14, hydrochloride]	3.7
CN(C)C(=O)c1cccc(C[C@H](N)c2ncccc2-n2ncc3ccccc32)n1	28.1
Cc1ccc(F)c(C[C@H](N)c2ncccc2-n2ncc3ccccc32)n1 [Example 11, hydrochloride]	0.16
N[C@@H](Cc1ccccn1)c1ncccc1-n1ncc2ccccc21 [Example 4, hydrochloride]	1.6
CS(=O)(=O)c1ccc(F)c(C[C@H](N)c2ncccc2-n2ncc3ccccc32)n1 [Example 21, formate]	1.1
N[C@@H](Cc1ncccc1F)c1ncccc1-n1ncc2cc(F)ccc21 [Example 28, hydrochloride]	1

A. N#Cc1ccc2c(cnn2-c2ccccc2[C@@H](N)Cc2ccccn2)c1
B. N[C@@H](Cc1ccccn1)c1ccccc1-n1ncc2cnccc21 [Example 7, hydrochloride]
Given the listed records, identify the one among A and B with higher IC50. Pick one and reply with its label.
B

P. N[C@@H](Cc1ncccc1F)c1ncccc1-n1ncc2ccccc21 [Example 10, hydrochloride]
Q. Cc1cccc(C[C@H](N)c2ncccc2-n2ncc3ccccc32)n1 [Example 5, hydrochloride]
Determine, for P and Q , which has the greater value of IC50. Output the label that corresponds to your choice.
Q

I. N[C@@H](Cc1ccc(F)cn1)c1ncccc1-n1ncc2ccccc21
II. CCc1ccc(F)c(C[C@H](N)c2ncccc2-n2ncc3ccccc32)n1 [Example 25, hydrochloride]
III. Cc1cccnc1C[C@H](N)c1ncccc1-n1ncc2ccccc21 [Example 16, hydrochloride]
Ascending sort, IC50. Your answer should be the labels, listed in the requested order.
III, II, I
(III: 0.13 µM, II: 0.34 µM, I: 0.5 µM)

I. N#Cc1ccc(F)c(C[C@H](N)c2ncccc2-n2ncc3ccccc32)n1
II. N[C@@H](Cc1cccc(F)n1)c1ncccc1-n1ncc2ccccc21 [Example 17, hydrochloride]
So which one has the bigger IC50 here, I or II ? Pick one and reply with its label.
II
(II: 3.3 µM, I: 0.18 µM)
